Field: log10(IC50). Provide a value for each of the molecules that follow.
Assay target: hNaV1.7 (Homo sapiens, UniProt Q15858)
Construct: expressed in transfected cells; host or cells: HEK293
Sequence (Q15858 whole entry): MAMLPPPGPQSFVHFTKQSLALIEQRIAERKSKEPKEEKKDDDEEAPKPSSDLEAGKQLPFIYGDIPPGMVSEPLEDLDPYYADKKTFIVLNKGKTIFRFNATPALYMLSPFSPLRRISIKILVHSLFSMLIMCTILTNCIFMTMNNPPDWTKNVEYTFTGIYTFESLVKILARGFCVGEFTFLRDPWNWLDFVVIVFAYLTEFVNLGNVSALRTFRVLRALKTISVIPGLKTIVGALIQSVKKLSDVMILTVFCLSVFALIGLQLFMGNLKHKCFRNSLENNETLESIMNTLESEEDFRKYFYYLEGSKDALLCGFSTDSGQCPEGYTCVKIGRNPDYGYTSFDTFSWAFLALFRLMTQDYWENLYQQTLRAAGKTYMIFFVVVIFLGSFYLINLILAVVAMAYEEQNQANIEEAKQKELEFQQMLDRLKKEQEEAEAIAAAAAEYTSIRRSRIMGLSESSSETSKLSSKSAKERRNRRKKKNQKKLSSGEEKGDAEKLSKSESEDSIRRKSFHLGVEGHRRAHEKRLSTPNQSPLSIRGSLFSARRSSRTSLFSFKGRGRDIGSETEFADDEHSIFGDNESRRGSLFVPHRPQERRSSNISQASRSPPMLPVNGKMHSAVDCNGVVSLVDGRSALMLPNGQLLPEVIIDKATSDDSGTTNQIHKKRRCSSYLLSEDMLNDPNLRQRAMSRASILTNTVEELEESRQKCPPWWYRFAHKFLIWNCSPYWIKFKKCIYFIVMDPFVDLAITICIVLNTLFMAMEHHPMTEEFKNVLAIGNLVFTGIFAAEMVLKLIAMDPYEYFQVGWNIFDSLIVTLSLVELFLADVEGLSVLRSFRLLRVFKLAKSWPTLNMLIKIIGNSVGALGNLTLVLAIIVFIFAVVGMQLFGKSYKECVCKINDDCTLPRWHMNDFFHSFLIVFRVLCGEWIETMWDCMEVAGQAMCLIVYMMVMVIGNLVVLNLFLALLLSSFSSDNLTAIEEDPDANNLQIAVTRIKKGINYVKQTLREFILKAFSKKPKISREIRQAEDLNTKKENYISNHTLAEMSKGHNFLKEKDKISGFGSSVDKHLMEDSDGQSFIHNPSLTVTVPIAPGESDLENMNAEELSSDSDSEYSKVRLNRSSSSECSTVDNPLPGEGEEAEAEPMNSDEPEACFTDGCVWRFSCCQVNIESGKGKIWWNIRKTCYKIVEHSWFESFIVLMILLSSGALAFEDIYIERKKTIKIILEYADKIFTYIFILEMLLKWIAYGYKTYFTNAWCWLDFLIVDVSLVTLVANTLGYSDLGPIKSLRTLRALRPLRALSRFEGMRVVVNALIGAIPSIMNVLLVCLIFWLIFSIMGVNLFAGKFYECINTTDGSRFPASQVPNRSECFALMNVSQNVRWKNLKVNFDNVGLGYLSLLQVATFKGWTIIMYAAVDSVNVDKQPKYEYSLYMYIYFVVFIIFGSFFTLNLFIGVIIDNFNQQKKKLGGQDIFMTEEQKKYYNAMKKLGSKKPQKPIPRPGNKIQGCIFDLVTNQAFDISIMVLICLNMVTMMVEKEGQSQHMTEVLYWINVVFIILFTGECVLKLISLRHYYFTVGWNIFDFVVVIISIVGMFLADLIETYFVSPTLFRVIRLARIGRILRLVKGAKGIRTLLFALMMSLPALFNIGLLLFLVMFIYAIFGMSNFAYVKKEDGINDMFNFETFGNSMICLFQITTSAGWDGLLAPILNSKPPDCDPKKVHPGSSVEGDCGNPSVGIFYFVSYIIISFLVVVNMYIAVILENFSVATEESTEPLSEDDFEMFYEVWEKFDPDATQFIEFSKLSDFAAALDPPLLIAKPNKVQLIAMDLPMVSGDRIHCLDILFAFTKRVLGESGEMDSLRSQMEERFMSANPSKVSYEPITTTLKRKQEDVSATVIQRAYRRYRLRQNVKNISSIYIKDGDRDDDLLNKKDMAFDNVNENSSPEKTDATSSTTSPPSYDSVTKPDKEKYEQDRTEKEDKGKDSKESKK
Experiment description: QPatch NaV1.7 assay (whole-cell patch clamp, QPatch16x)
Assay type: cell-based
Run conditions: holding voltage −90 mV (most channels closed), HEK293-hNaV1.7 cells, read-out: QP Nav1.7 −90 mV pIC50 (converted)
Counter-ions that a name gives are not always drawn.
log10 IC50, µM

get_value(item= CN1CC[C@@]2(CC[C@H](c3cc(-c4ccc5c(c4)OC(F)(F)O5)ccn3)N2)C1=O [Example 172, hydrochloride] , readout=log10(IC50)) returns 2.50

get_value(item= Cc1cnc([C@H]2CC[C@]3(CCN(C)C3=O)N2)cc1-c1ccc(C(F)(F)F)cc1 [Example 42, hydrochloride] , readout=log10(IC50)) returns 1.40

get_value(item= CCOc1ccc(F)c(-c2ccnc([C@@H]3CC[C@@]4(CCN(C)C4=O)N3)c2C)c1 [Example 214, hydrochloride] , readout=log10(IC50)) returns 1.50

get_value(item= CN1CC[C@@]2(CC[C@H](c3cc(-c4ccc(C5(C#N)CC5)cc4)ccn3)N2)C1=O [Example 171, hydrochloride] , readout=log10(IC50)) returns 2.20

get_value(item= Cc1cc(-c2ccc(C(F)(F)F)cc2)cc([C@H]2CC[C@]3(CCN(C)C3=O)N2)n1 [Example 31, hydrochloride] , readout=log10(IC50)) returns 1.90

get_value(item= CN1CC[C@@]2(CC[C@H](c3cc(-c4cc5[nH]ncc5cc4F)ccn3)N2)C1=O [Example 186, hydrochloride] , readout=log10(IC50)) returns 3.80

get_value(item= CCOc1ccc(F)c(-c2cc([C@@H]3CC[C@@]4(CCN(C)C4=O)N3)ncc2F)c1 [Example 224, hydrochloride] , readout=log10(IC50)) returns 2.00

---

Assay target: hNaV1.7 (Homo sapiens)
Construct: expressed in transfected cells; host or cells: HEK293
Experiment description: QPatch NaV1.7 assay (whole-cell patch clamp, QPatch16x)
Type: cell-based
Run conditions: holding voltage −90 mV (most channels closed), HEK293-hNaV1.7 cells, read-out: QP Nav1.7 −90 mV pIC50 (converted)
Structures can show the parent of a compound that is named as a salt.
Measured attribute: IC50 (µM)
Reply with just the number (in µM).

get_value(item= Cc1cc(-c2ccc(C(F)(F)F)cc2)cc([C@@H]2CC[C@]3(CCNC3=O)N2C)n1 [Example 228, hydrochloride] , readout=IC50) returns 20

get_value(item= O=C1NCCC[C@]12CC[C@@H](c1cc(-c3ccc(F)cc3)ccn1)N2 [Example 113, hydrochloride] , readout=IC50) returns 200

get_value(item= CCCOc1cccc(-c2ccnc([C@H]3CC[C@@]4(CCN(C)C4=O)N3)c2)c1 [Example 179, hydrochloride] , readout=IC50) returns 31.6

get_value(item= O=C1NCCC[C@@]12CC[C@@H](c1cc(-c3ccc(F)cc3)ccn1)N2 [Example 110, hydrochloride] , readout=IC50) returns 251

get_value(item= Cc1cc(-c2ccc(C(F)(F)F)cc2)cc([C@@H]2CC[C@@]3(CCN(C)C3=O)N2)n1 [Example 29, hydrochloride] , readout=IC50) returns 126

get_value(item= CCOc1cccc(-c2cc(C)nc([C@H]3CC[C@@]4(CCN(C)C4=O)N3)c2)c1F [Example 199, hydrochloride] , readout=IC50) returns 158

get_value(item= COc1cc(C(F)(F)F)ccc1-c1cc(C)nc([C@H]2CC[C@]3(CCN(C)C3=O)N2)c1 [Example 90, hydrochloride] , readout=IC50) returns 6.31

get_value(item= COc1cnc([C@@H]2CC[C@]3(CCN(C)C3=O)N2)cc1-c1ccc(C(F)(F)F)cc1 [Example 153, hydrochloride] , readout=IC50) returns 158

get_value(item= CCOc1cc(-c2cc(C)nc([C@@H]3CC[C@]4(CCN(C)C4=O)N3)c2)ccc1F [Example 123, hydrochloride] , readout=IC50) returns 251

get_value(item= CCOc1ccc(F)c(-c2cc([C@@H]3CC[C@]4(CCN(C)C4=O)N3)ncc2CC)c1 [Example 242, hydrochloride] , readout=IC50) returns 100

get_value(item= Cc1c(-c2ccc(F)cc2)ccnc1[C@@H]1CC[C@]2(CCN(C)C2=O)N1 [Example 18, hydrochloride] , readout=IC50) returns 794

get_value(item= CCOc1cc(-c2cc(C)nc([C@H]3CC[C@]4(CCN(C)C4=O)N3)c2)ccc1F [Example 124, hydrochloride] , readout=IC50) returns 126

get_value(item= Cc1cc(-c2ccc(C(F)(F)F)cc2)cc([C@H]2CC[C@@]3(CCN(C)C3=O)N2)n1 [Example 28, hydrochloride] , readout=IC50) returns 31.6

get_value(item= CN1CCC[C@@]2(CC[C@@H](c3cc(-c4ccc(C(F)(F)F)cc4)ccn3)N2)C1=O [Example 68, hydrochloride] , readout=IC50) returns 25.1

---

Assay target: hNaV1.7 (Homo sapiens)
Construct: expressed in transfected cells; host or cells: HEK293
Experiment description: QPatch NaV1.7 assay (whole-cell patch clamp, QPatch16x)
Format: cell-based
Run conditions: holding voltage V1/2 SSI (half of channels inactivated), HEK293-hNaV1.7 cells, read-out: QP Nav1.7 SSI vhalf pIC50 (converted)
Where a name gives a salt, the structure may show the parent alone.
Measured attribute: log10 of IC50 (log10 of the value in µM)
log10 IC50, µM

get_value(item= CCOc1cc(-c2cc(C)nc([C@@H]3CC[C@@]4(CCN(C)C4=O)N3)c2)ccc1F [Example 126, hydrochloride] , readout=log10 of IC50) returns 1.30

get_value(item= CC(C)Oc1ccc(-c2ccnc([C@@H]3CC[C@@]4(CCN(C)C4=O)N3)c2)cc1 [Example 161, hydrochloride] , readout=log10 of IC50) returns 1.60

get_value(item= CC1(C)C[C@@]2(CC[C@@H](c3cc(-c4ccc(C(F)(F)F)cc4)ccn3)N2)C(=O)N1 [Example 44, hydrochloride] , readout=log10 of IC50) returns 1.00

get_value(item= O=C1NCC[C@]12CC[C@@H](c1cc(-c3ccc(C(F)(F)F)cc3)ccn1)N2 [Example 114, hydrochloride] , readout=log10 of IC50) returns 1.20

get_value(item= CCOc1ccc(F)c(-c2cc(C)nc(C3CCC4(CCN(C)C4=O)N3)c2C)c1 (mixture of isomers) [Example 256, hydrochloride] , readout=log10 of IC50) returns 0.40

get_value(item= Cc1cnc([C@@H]2CC[C@]3(CCN(C)C3=O)N2)cc1-c1ccc(C(F)(F)F)cc1 [Example 43, hydrochloride] , readout=log10 of IC50) returns 0.50

get_value(item= Cc1cc(-c2cc(F)ccc2F)cc([C@H]2CC[C@@]3(CCN(C)C3=O)N2)n1 [Example 211, hydrochloride] , readout=log10 of IC50) returns 1.40

get_value(item= CC1(C)C[C@]2(CC[C@H](c3cc(-c4ccc(C(F)(F)F)cc4)ccn3)N2)C(=O)N1 [Example 46, hydrochloride] , readout=log10 of IC50) returns -0.10

get_value(item= CCOc1ccc(F)c(-c2cc(C(C)C)nc([C@H]3CC[C@@]4(CCN(C)C4=O)N3)c2)c1 [Example 237, hydrochloride] , readout=log10 of IC50) returns -0.50

get_value(item= CN1CC[C@@]2(CC[C@H](c3cc(-c4ccc(C(F)(F)F)cc4)ccn3)N2C)C1=O [Example 225, hydrochloride] , readout=log10 of IC50) returns 1.40

get_value(item= Cc1ccn(-c2ccc(F)c(-c3ccnc([C@H]4CC[C@@]5(CCN(C)C5=O)N4)c3)c2)n1 [Example 182, hydrochloride] , readout=log10 of IC50) returns 1.20

get_value(item= Cc1cc(-c2ccc(F)cc2)cc([C@@H]2CC[C@]3(CCN(C)C3=O)N2)n1 [Example 56, hydrochloride] , readout=log10 of IC50) returns 1.00

get_value(item= Cc1cc(-c2ccc(C(F)(F)F)cc2)cc([C@H]2CC[C@@]3(CCNC3=O)N2)n1 [Example 94, hydrochloride] , readout=log10 of IC50) returns -0.70

get_value(item= CN1CC[C@@]2(CC(F)(F)C(c3cc(-c4ccc(C(F)(F)F)cc4)ccn3)N2)C1=O (mixture of isomers) [Example 240, hydrochloride] , readout=log10 of IC50) returns 0.20

get_value(item= CCOc1ccc(F)c(-c2cc(C)nc([C@@H]3CC[C@@]4(CCNC4=O)N3)c2)c1 [Example 105, hydrochloride] , readout=log10 of IC50) returns 0.30

get_value(item= CCOc1ccc(-c2ccnc([C@H]3CC[C@@]4(CCN(C)C4=O)N3)c2)cc1 [Example 76, hydrochloride] , readout=log10 of IC50) returns 0.60

get_value(item= CCOc1cc(-c2cc(C)nc([C@@H]3CC[C@]4(CCN(C)C4=O)N3)c2)ccc1F [Example 123, hydrochloride] , readout=log10 of IC50) returns 1.60

get_value(item= CCOc1ccc(-c2cc(C)nc([C@@H]3CC[C@@]4(CCN(C)C4=O)N3)c2)cc1 [Example 88, hydrochloride] , readout=log10 of IC50) returns 1.50

get_value(item= COc1ccc(F)c(-c2cc(C)nc([C@H]3CC[C@@]4(CCN(C)C4=O)N3)c2)c1 [Example 195, hydrochloride] , readout=log10 of IC50) returns 0.70

get_value(item= CCOc1ccc(F)c(-c2ccnc([C@H]3CC[C@@]4(CCCNC4=O)N3)c2)c1 [Example 108, hydrochloride] , readout=log10 of IC50) returns -1.20

get_value(item= CN1[C@H](c2cc(-c3ccc(C(F)(F)F)cc3)ccn2)CC[C@]12CCCNC2=O [Example 230, hydrochloride] , readout=log10 of IC50) returns 0.10

get_value(item= CC1(C)C[C@]2(CC[C@H](c3cc(-c4cc(O)ccc4F)ccn3)N2)C(=O)N1 , readout=log10 of IC50) returns 1.70

get_value(item= COc1ccc(F)cc1-c1ccnc([C@H]2CC[C@@]3(CCN(C)C3=O)N2)c1 [Example 10, hydrochloride] , readout=log10 of IC50) returns 1.70

get_value(item= CCOc1ccc(F)c(-c2cc(OC)nc([C@H]3CC[C@]4(CCN(C)C4=O)N3)c2)c1 (single isomer, unassigned) [Example 247, hydrochloride] , readout=log10 of IC50) returns 0.10

get_value(item= COc1cnc([C@@H]2CC[C@@]3(CCN(C)C3=O)N2)cc1-c1ccc(C(F)(F)F)cc1 [Example 154, hydrochloride] , readout=log10 of IC50) returns 1.10

get_value(item= CCOc1ccc(F)c(-c2ccnc([C@@H]3CC[C@]4(CCN(C)C4=O)N3)c2C)c1 [Example 213, hydrochloride] , readout=log10 of IC50) returns 0.80

get_value(item= CN1CC[C@@]2(CC[C@H](c3cc(-c4ccccc4)ccn3)N2)C1=O [Example 6, hydrochloride] , readout=log10 of IC50) returns 1.50

get_value(item= CN1CC[C@@]2(CC[C@H](c3cc(-c4cc(OCCF)ccc4F)ccn3)N2)C1=O [Example 251, hydrochloride] , readout=log10 of IC50) returns 1.60
